The measurements presented in this section are drawn from patent US20120071475A1.

Assay: Solubility test (artificial intestinal juice pH 6.8, 1% DMSO)
Format: physicochemical
Settings: artificial intestinal juice pH 6.8 with 1% DMSO, fassgf or other biorelevant, kinetic from dmso stock, 25° C.

molecule	solubility at 16 h
COc1cc(N2CCc3nc(NC(=O)Nc4ccccc4C(=O)NC(C)CN(C)C)sc3C2)nc(OC)n1 (stereo not shown)	> 50 µM
COc1cc(N2CCc3nc(NC(=O)Nc4ccccc4C(=O)N4CCOCC4)sc3C2)nc(OC)n1	> 50 µM
C[C@@H](CO)NC(=O)c1ccccc1NC(=O)Nc1nc2c(s1)CN(c1cc[nH]c(=O)c1)CC2	28.1 µM
COc1cc(N2CCc3nc(NC(=O)Nc4ccsc4C(=O)O)sc3C2)nc(OC)n1	12.3 µM
